Test system: Aspergillus flavus
Experiment: Antifungal activity against Aspergillus flavus NCIM 524 after 2 to 3 days by serial plate dilution method
Type: functional
Observation Type: MIC (µg/mL)
# output: bare number, implied unit µg/mL

Known results for compounds:
Chem Smiles	Target Entity	Observation Type	Result Number
O=C1CCC(=O)N1CC(=O)N1c2ccccc2Sc2ccccc21	Aspergillus flavus	MIC	15
CC(=O)c1ccc2c(c1)N(C(=O)CN1C(=O)c3ccccc3C1=O)c1ccccc1S2	Aspergillus flavus	MIC	10
CC(=O)c1ccc2c(c1)N(C(=O)CN1C(=O)CCC1=O)c1ccccc1S2	Aspergillus flavus	MIC	25
O=C1CCC(=O)N1CC(=O)N1c2ccccc2Sc2ccc(Cl)cc21	Aspergillus flavus	MIC	25
O=C1C=CC(=O)N1CC(=O)N1c2ccccc2Sc2ccc(Cl)cc21	Aspergillus flavus	MIC	20

Recorded result, O=C1c2ccccc2C(=O)N1CC(=O)N1c2ccccc2Sc2ccc(C(F)(F)F)cc21 , MIC: 10

Recorded result, O=C1c2ccccc2C(=O)N1CC(=O)N1c2ccccc2Sc2ccc(Cl)cc21 , MIC: 10

Recorded result, O=C1C=CC(=O)N1CC(=O)N1c2ccccc2Sc2ccccc21 , MIC: 20

* * *

Test system: Aspergillus niger
Assay: Antifungal activity against Aspergillus niger NCIM 617 at 10 ug/ml after 2 to 3 days by serial plate dilution method
Format: functional
Conditions: read-out: IZ
Item-by-item account of zone of inhibition at 10 µg/mL
Quick note: number first, unit second.

Known results for compounds:
Compound	Result
O=C1c2ccccc2C(=O)N1CC(=O)N1c2ccccc2Sc2ccccc21	23 mm
O=C1C=CC(=O)N1CC(=O)N1c2ccccc2Sc2ccc(Cl)cc21	18 mm
O=C1CCC(=O)N1CC(=O)N1c2ccccc2Sc2ccc(C(F)(F)F)cc21	21 mm
O=C1C=CC(=O)N1CC(=O)N1c2ccccc2Sc2ccccc21	17 mm

We now examine a further compound.
// assay Aspergillus niger, entry OC(Cn1cncn1)(Cn1cncn1)c1ccc(F)cc1F [FLUCONAZOLE] , zone of inhibition at 10 µg/mL value = 23 mm

* * *

Tested on: Aspergillus niger
Assay: Antifungal activity against Aspergillus niger NCIM 617 at 10 ug/ml after 2 to 3 days by serial plate dilution method
Assay type: functional
Settings: read-out: IZ
Item-by-item account of zone of inhibition at 10 µg/mL
Quick note: number first, unit second.

Chem Smiles	zone of inhibition at 10 µg/mL
O=C1CCC(=O)N1CC(=O)N1c2ccccc2Sc2ccc(Cl)cc21	23 mm
CC(=O)c1ccc2c(c1)N(C(=O)CN1C(=O)c3ccccc3C1=O)c1ccccc1S2	25 mm
O=C1C=CC(=O)N1CC(=O)N1c2ccccc2Sc2ccc(C(F)(F)F)cc21	19 mm

Recorded result, O=C1c2ccccc2C(=O)N1CC(=O)N1c2ccccc2Sc2ccc(Cl)cc21 , zone of inhibition at 10 µg/mL: 24 mm

Recorded result, O=C1c2ccccc2C(=O)N1CC(=O)N1c2ccccc2Sc2ccc(C(F)(F)F)cc21 , zone of inhibition at 10 µg/mL: 21 mm

Recorded result, O=C1CCC(=O)N1CC(=O)N1c2ccccc2Sc2ccccc21 , zone of inhibition at 10 µg/mL: 19 mm

Recorded result, CC(=O)c1ccc2c(c1)N(C(=O)CN1C(=O)CCC1=O)c1ccccc1S2 , zone of inhibition at 10 µg/mL: 26 mm
